Experiment: self-splicing fitness, log relative to wild type (ln ratio); higher = more splicing; Tetrahymena group I intron in knt gene, E. coli kanamycin selection, DiMSum; sequences stand for … in CUCUCU…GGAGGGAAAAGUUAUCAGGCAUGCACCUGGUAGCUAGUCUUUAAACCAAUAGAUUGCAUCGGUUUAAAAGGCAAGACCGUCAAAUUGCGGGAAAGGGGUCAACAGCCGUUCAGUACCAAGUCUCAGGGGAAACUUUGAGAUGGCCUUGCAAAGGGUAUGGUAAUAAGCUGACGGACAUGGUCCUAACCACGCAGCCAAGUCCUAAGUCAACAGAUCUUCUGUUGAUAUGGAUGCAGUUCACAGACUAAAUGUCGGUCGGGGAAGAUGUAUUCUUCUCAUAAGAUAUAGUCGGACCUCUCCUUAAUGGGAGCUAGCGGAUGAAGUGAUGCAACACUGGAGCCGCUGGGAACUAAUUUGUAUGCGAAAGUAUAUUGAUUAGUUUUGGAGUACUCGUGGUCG;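 note: selection with 25 µg/mL kanamycin versus none on LB agar overnight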
Settings: 30 °C
Decide using self-splicing fitness (ln): a value greater than or equal to -3 is true (1), a smaller one is false (0).

- sequence_record: "AUGCAGCAAUAUUACGGCUA"
  label: "true (1)"
- sequence_record: "AGUGAGCAAUAUUACGAGCU"
  label: "true (1)"
- sequence_record: "ACCAAGCAAUAUUACGAUUA"
  label: "true (1)"
- sequence_record: "GCAUAGCAAUAUUACGCCCA"
  label: "true (1)"
- sequence_record: "UUGAAGCAAUAUUACGGCGG"
  label: "true (1)"
- sequence_record: "CGAUAGCAAUAUUACGUUGG"
  label: "true (1)"
- sequence_record: "CACUAGCAAUAUUACGAGCU"
  label: "false (0)"
- sequence_record: "AGGUAGCAAUAUUACGAAUG"
  label: "false (0)"
- sequence_record: "GAGCAGCAAUAUUACGCAAA"
  label: "true (1)"
- sequence_record: "AAGUAGCAAUAUUACGCCAA"
  label: "true (1)"

Now take the following sequence into account.
**Query** Hello, I need to know if `UUAAAGCAAUAUUACGAAUU` has measured self-splicing fitness (ln) not below -3. Thanks!
**Result** true (1)

###

Experiment: self-splicing fitness, log relative to wild type (ln ratio); higher = more splicing; Tetrahymena group I intron in knt gene, E. coli kanamycin selection, DiMSum; sequences stand for … in CUCUCU…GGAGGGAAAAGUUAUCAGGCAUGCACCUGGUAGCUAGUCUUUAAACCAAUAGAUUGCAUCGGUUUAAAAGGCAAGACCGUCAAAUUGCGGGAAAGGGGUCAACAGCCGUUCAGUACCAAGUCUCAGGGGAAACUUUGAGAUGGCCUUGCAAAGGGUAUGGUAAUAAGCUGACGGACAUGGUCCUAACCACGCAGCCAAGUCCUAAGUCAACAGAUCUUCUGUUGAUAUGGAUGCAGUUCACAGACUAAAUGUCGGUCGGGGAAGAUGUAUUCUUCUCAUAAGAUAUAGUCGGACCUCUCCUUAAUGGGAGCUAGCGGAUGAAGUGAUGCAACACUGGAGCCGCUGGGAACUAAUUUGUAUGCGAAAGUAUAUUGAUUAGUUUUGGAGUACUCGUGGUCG
Details: 37 °C
Measured self-splicing fitness (ln), listed per entry.
The reply should be a number, written without any unit.

- sequence_record: "CCUAAGCAAUAUUACGUUCC"
  self-splicing fitness (ln): -1.8
- sequence_record: "ACACAGCAAUAUUACGAUAG"
  self-splicing fitness (ln): -1.62
- sequence_record: "AACGAGCAAUAUUACGCGGG"
  self-splicing fitness (ln): -2.32

**Query** Recorded self-splicing fitness (ln) of `ACGCAGCAAUAUUACGACCC` , please.
**Result** -0.0893

**Query** Next: `AUUGAGCAAUAUUACGGAUC`
**Result** -2.65

**Query** Please do the same for `CUAAAGCAAUAUUACGGAGC` as well.
**Result** -1.2

**Query** Do the same for `CAGCAGCAAUAUUACGGCUU` please
**Result** 0.453

**Query** Try this sequence too: `ACAGAGCAAUAUUACGUAGU`
**Result** -2.87

**Query** Further, for `GCAGAGCAAUAUUACGACUU` ?
**Result** -0.936

**Query** Please give the result for `GCGAAGCAAUAUUACGGCAC` too.
**Result** 0.387

**Query** What about this sequence? `AAGCAGCAAUAUUACGUGAC`
**Result** -2.38

**Query** // query: `GAAAAGCAAUAUUACGGACG`
**Result** -0.401

**Query** Follow-up item: `CGGUAGCAAUAUUACGUGUA`
**Result** -2.97

**Query** Ok, now `UUUGAGCAAUAUUACGCAUA`
**Result** -1.01

**Query** Try `GGCGAGCAAUAUUACGAAUG` next.
**Result** -2.84

**Query** What do you get for `UAAAAGCAAUAUUACGACAG` ?
**Result** -0.173

###

Test: self-splicing fitness, log relative to wild type (ln ratio); higher = more splicing; Tetrahymena group I intron in knt gene, E. coli kanamycin selection, DiMSum; sequences stand for … in CUCUCU…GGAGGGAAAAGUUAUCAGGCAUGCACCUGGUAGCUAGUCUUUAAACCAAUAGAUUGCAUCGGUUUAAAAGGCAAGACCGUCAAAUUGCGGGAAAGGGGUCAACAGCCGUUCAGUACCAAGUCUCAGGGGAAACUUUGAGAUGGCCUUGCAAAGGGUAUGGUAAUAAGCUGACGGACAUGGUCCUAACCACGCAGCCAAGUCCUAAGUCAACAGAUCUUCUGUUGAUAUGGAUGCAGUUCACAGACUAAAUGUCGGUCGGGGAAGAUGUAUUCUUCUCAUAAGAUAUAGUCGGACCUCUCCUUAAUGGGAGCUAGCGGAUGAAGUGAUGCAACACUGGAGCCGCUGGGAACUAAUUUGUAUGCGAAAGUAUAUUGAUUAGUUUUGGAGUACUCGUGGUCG
Conditions: 30 °C
y means recorded self-splicing fitness (ln) is -2 or above; n means it is below -2.

- sequence_record: "AGGUAGCAAUAUUACGGUGC"
  label: "n"
- sequence_record: "AGCCAGCAAUAUUACGCGAU"
  label: "y"
- sequence_record: "GGUAAGCAAUAUUACGAGAG"
  label: "n"
- sequence_record: "UGGGAGCAAUAUUACGCGAA"
  label: "y"

Attention now turns to another entry.
**Query** Determine whether measured self-splicing fitness (ln) meets or exceeds -2 for `GGAGAGCAAUAUUACGCUGA`
**Result** n

###

Reported self-splicing fitness (ln) by item:
Assay: self-splicing fitness, log relative to wild type (ln ratio); higher = more splicing; Tetrahymena group I intron in knt gene, E. coli kanamycin selection, DiMSum; sequences stand for … in CUCUCU…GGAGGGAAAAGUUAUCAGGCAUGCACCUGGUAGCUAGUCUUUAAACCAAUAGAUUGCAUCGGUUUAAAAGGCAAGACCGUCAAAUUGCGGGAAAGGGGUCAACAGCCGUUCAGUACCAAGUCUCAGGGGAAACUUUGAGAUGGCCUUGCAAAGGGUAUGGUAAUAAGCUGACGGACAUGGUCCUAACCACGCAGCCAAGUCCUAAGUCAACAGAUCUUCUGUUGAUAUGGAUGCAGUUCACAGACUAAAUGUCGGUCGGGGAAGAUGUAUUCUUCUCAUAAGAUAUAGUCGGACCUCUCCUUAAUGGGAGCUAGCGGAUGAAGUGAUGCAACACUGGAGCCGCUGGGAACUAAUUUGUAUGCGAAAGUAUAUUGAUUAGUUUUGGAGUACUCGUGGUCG
Conditions: 30 °C
# print the numeric value only

Known results for sequences:
- sequence_record: "GAGUAGCAAUAUUACGCGUC"
  self-splicing fitness (ln): -1.36
- sequence_record: "GGGAAGCAAUAUUACGUUCA"
  self-splicing fitness (ln): 0.0857
- sequence_record: "CAGAAGCAAUAUUACGAGAU"
  self-splicing fitness (ln): -3.23

**Query** Given the sequence `AACUAGCAAUAUUACGACUG` , what is its reported self-splicing fitness (ln)?
**Result** -0.606

**Query** Let us now turn to `CGCGAGCAAUAUUACGACAG`
**Result** -0.942

**Query** Entry `GGGUAGCAAUAUUACGUCGG` please
**Result** -3.8

**Query** Okay, and `UCGUAGCAAUAUUACGGCGU` ?
**Result** -3.46

**Query** Consider next the sequence `CCCCAGCAAUAUUACGCCCA` in the same way.
**Result** -2.11

###

Experiment: self-splicing fitness, log relative to wild type (ln ratio); higher = more splicing; Tetrahymena group I intron in knt gene, E. coli kanamycin selection, DiMSum; sequences stand for … in CUCUCU…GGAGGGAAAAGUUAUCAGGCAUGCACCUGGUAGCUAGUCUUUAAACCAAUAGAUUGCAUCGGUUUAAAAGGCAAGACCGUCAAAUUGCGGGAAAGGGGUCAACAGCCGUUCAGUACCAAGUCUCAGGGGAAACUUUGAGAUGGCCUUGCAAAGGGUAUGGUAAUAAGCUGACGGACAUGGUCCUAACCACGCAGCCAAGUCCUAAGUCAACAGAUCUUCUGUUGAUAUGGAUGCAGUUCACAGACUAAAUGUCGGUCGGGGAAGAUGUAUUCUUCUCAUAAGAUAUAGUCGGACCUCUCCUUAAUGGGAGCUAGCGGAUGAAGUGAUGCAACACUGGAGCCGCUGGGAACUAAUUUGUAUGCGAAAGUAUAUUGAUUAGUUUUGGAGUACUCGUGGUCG
Settings: 37 °C
Hi, to clarify the labels: Y covers self-splicing fitness (ln) from -1 upward, N covers anything below -1.

**Query** Decide: is the reported value of self-splicing fitness (ln) for `GGGCAGCAAUAUUACGCGAU` equal to or greater than -1?
**Result** N
